testSystem: δ opioid receptor (Rattus norvegicus, UniProt P33533)
Construct: from tissue; host or cells: rat brain membranes (cerebellum removed), Sprague-Dawley
Sequence (P33533 whole entry): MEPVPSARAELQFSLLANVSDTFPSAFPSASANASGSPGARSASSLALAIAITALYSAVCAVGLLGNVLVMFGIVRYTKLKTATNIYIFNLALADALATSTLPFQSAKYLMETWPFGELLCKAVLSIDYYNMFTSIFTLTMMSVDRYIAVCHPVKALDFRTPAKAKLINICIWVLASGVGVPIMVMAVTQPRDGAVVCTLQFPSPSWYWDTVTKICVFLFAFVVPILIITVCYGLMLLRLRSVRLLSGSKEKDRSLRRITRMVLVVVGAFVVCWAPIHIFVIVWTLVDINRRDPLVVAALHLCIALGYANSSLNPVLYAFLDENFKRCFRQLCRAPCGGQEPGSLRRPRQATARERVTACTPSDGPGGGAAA
protocolText: δ opioid receptor binding, displacement of δ-selective radioligand from rat brain membranes
conditionNotes: ratio of binding constants
Positions of bridges follow the written chain, without caps; N, C: chain ends. Non-standard residues stand in square brackets, D forms with d. Residues, ends and D or L forms follow the SMILES beside them. 2Nal = N[C@@H](Cc1ccc2ccccc2c1)C(=O)O; Dmt = Cc1cc(O)cc(C)c1C[C@H](N)C(=O)O; dOrn = NCCC[C@@H](N)C(=O)O; NMeAib = CNC(C)(C)C(=O)O
Below, each entry is listed alongside its reported Ki^δ/Ki^μ (selectivity for μ versus δ receptors).
Form field (numeric): enter value without unit.

Please review the following examples before continuing.
Cc1cc(O)cc(C)c1C[C@H](N)C(=O)N[C@@H]1CCCNC(=O)CNC(=O)[C@H]2CCCN2C(=O)[C@H](Cc2ccc3ccccc3c2)NC1=O [Example 3, H-Dmt-c[-D-Orn-2-Nal-D-Pro-Gly-]] (H-[Dmt][dOrn][2Nal][dP]G; lactam 2-C) ... 0.993
C[C@H]1NC(=O)[C@H]2CCCN2C(=O)[C@H](Cc2ccc3ccccc3c2)NC(=O)[C@H](NC(=O)[C@@H](N)Cc2ccc(O)cc2)CCCNC1=O [Example 5, H-Tyr-c[-D-Orn-2-Nal-D-Pro-D-Ala-]] (HELM PEPTIDE1{Y.[O=C([C@@H](CCCN[*:3])N[*:1])[*:2]].[O=C([C@H](Cc1ccc2ccccc2c1)N[*:1])[*:2]].[dP].[dA]}$PEPTIDE1,PEPTIDE1,2:R3-5:R2$$$V2.0) ... 0.0105
CN1C(=O)[C@H]2CCCN2C(=O)[C@H](Cc2ccc3ccccc3c2)NC(=O)[C@H](NC(=O)[C@@H](N)Cc2ccc(O)cc2)CCCNC(=O)C1(C)C [Example 7, H-Tyr-c[-D-Orn-2-Nal-D-Pro-MeAib-]] (H-Y[dOrn][2Nal][dP][NMeAib]; lactam 2-C) ... 0.366

Requested field: Ki^δ/Ki^μ (selectivity for μ versus δ receptors). Item: N[C@@H](Cc1ccc(O)cc1)C(=O)N[C@@H]1CCCCNC(=O)CNC(=O)[C@H]2CCCN2C(=O)[C@H](Cc2ccc3ccccc3c2)NC1=O [H-Tyr-c[-D-Lys-2-Nal-D-Pro-Gly-], reference compound] (HELM PEPTIDE1{Y.[dK].[O=C([C@H](Cc1ccc2ccccc2c1)N[*:1])[*:2]].[dP].G}$PEPTIDE1,PEPTIDE1,2:R3-5:R2$$$V2.0)
3.66

---

Quick reference: Ke in the MVD assay, antagonist potency against [D-Ala2]deltorphin I of the listed items.
testSystem: δ opioid receptors (Mus musculus)
Construct: Bioassays Using Isolated Organ Preparations; from tissue; host or cells: isolated mouse vas deferens
Sequence (P32300 whole entry): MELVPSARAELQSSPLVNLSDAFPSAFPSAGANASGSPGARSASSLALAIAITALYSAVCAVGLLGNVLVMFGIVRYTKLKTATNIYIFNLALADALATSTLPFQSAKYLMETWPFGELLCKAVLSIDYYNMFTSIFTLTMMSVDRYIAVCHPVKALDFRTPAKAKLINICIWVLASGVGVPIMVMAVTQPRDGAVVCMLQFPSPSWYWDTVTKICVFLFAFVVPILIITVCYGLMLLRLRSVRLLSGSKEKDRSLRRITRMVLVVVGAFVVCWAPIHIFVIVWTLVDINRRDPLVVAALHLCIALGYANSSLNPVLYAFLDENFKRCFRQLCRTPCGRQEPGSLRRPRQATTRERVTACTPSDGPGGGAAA
protocolText: MVD assay: inhibition of electrically evoked contractions of the mouse vas deferens (δ antagonist Ke)
Format: cell-based
conditionNotes: δ agonist [D-Ala2]deltorphin I, means of 3-8 determinations ± SEM
Positions of bridges follow the written chain, without caps; N, C: chain ends. Non-standard residues stand in square brackets, D forms with d. Residues, ends and D or L forms follow the SMILES beside them. 2Nal = N[C@@H](Cc1ccc2ccccc2c1)C(=O)O; Dmt = Cc1cc(O)cc(C)c1C[C@H](N)C(=O)O; dOrn = NCCC[C@@H](N)C(=O)O; NMeAib = CNC(C)(C)C(=O)O
The response must contain the number and no unit.

# annotated cases, reported Ke in the MVD assay, antagonist potency against [D-Ala2]deltorphin I shown
CN1CC(=O)NCCC[C@@H](NC(=O)[C@@H](N)Cc2ccc(O)cc2)C(=O)N[C@@H](Cc2ccc3ccccc3c2)C(=O)N2CCC[C@@H]2C1=O [Example 2, H-Tyr-c[-D-Orn-2-Nal-D-Pro-Sar-]] (HELM PEPTIDE1{Y.[O=C([C@@H](CCCN[*:3])N[*:1])[*:2]].[O=C([C@H](Cc1ccc2ccccc2c1)N[*:1])[*:2]].[dP].[Sar]}$PEPTIDE1,PEPTIDE1,2:R3-5:R2$$$V2.0) ... 7.81
N[C@@H](Cc1ccc(O)cc1)C(=O)N[C@@H]1CCCCNC(=O)CNC(=O)[C@H]2CCCN2C(=O)[C@H](Cc2ccc3ccccc3c2)NC1=O [H-Tyr-c[-D-Lys-2-Nal-D-Pro-Gly-], reference compound] (HELM PEPTIDE1{Y.[dK].[O=C([C@H](Cc1ccc2ccccc2c1)N[*:1])[*:2]].[dP].G}$PEPTIDE1,PEPTIDE1,2:R3-5:R2$$$V2.0) ... 305
CC[C@@H](C)[C@H]1NC(=O)[C@H]2CCCN2C(=O)[C@H](Cc2ccc3ccccc3c2)NC(=O)[C@H](NC(=O)[C@@H](N)Cc2ccc(O)cc2)CCCNC1=O [Example 9, H-Tyr-c[-D-Orn-2-Nal-D-Pro-D-Ile-]] (HELM PEPTIDE1{Y.[O=C([C@@H](CCCN[*:3])N[*:1])[*:2]].[O=C([C@H](Cc1ccc2ccccc2c1)N[*:1])[*:2]].[dP].[dI]}$PEPTIDE1,PEPTIDE1,2:R3-5:R2$$$V2.0) ... 7.63

Any idea what Ke in the MVD assay, antagonist potency against [D-Ala2]deltorphin I was measured for CC1(C)NC(=O)[C@H]2CCCN2C(=O)[C@H](Cc2ccc3ccccc3c2)NC(=O)[C@H](NC(=O)[C@@H](N)Cc2ccc(O)cc2)CCCNC1=O [Example 6, H-Tyr-c[-D-Orn-2-Nal-D-Pro-Aib-]] (HELM PEPTIDE1{Y.[O=C([C@@H](CCCN[*:3])N[*:1])[*:2]].[O=C([C@H](Cc1ccc2ccccc2c1)N[*:1])[*:2]].[dP].[Aib]}$PEPTIDE1,PEPTIDE1,2:R3-5:R2$$$V2.0) ?
55.8

Item Cc1cc(O)cc(C)c1C[C@H](N)C(=O)N[C@@H]1CCCNC(=O)CNC(=O)[C@H]2CCCN2C(=O)[C@H](Cc2ccc3ccccc3c2)NC1=O [Example 3, H-Dmt-c[-D-Orn-2-Nal-D-Pro-Gly-]] (H-[Dmt][dOrn][2Nal][dP]G; lactam 2-C) has what recorded Ke in the MVD assay, antagonist potency against [D-Ala2]deltorphin I?
3.37

Please report the recorded Ke in the MVD assay, antagonist potency against [D-Ala2]deltorphin I for CN[C@@H](Cc1ccc(O)cc1)C(=O)N[C@@H]1CCCNC(=O)CNC(=O)[C@H]2CCCN2C(=O)[C@H](Cc2ccc3ccccc3c2)NC1=O [Example 1, Tyr(NMe)-c[-D-Orn-2-Nal-D-Pro-Gly-]] (HELM PEPTIDE1{[meY].[O=C([C@@H](CCCN[*:3])N[*:1])[*:2]].[O=C([C@H](Cc1ccc2ccccc2c1)N[*:1])[*:2]].[dP].G}$PEPTIDE1,PEPTIDE1,2:R3-5:R2$$$V2.0) .
38.8

Any idea what its Ke in the MVD assay, antagonist potency against [D-Ala2]deltorphin I is? The molecule is CN1C(=O)[C@H]2CCCN2C(=O)[C@H](Cc2ccc3ccccc3c2)NC(=O)[C@H](NC(=O)[C@@H](N)Cc2ccc(O)cc2)CCCNC(=O)C1(C)C [Example 7, H-Tyr-c[-D-Orn-2-Nal-D-Pro-MeAib-]] (H-Y[dOrn][2Nal][dP][NMeAib]; lactam 2-C)
480

State the recorded Ke in the MVD assay, antagonist potency against [D-Ala2]deltorphin I for this entry: Cc1cc(O)cc(C)c1C[C@H](N)C(=O)N[C@@H]1CCCNC(=O)[C@@H](C)NC(=O)[C@H]2CCCN2C(=O)[C@H](Cc2ccc3ccccc3c2)NC1=O [Example 10, H-Dmt-c[-D-Orn-2-Nal-D-Pro-D-Ala-]] (H-[Dmt][dOrn][2Nal][dP][dA]; lactam 2-C)
0.319

// query Ke in the MVD assay, antagonist potency against [D-Ala2]deltorphin I value for entry C[C@H]1NC(=O)[C@H]2CCCN2C(=O)[C@H](Cc2ccc3ccccc3c2)NC(=O)[C@H](NC(=O)[C@@H](N)Cc2ccc(O)cc2)CCCNC1=O [Example 5, H-Tyr-c[-D-Orn-2-Nal-D-Pro-D-Ala-]] (HELM PEPTIDE1{Y.[O=C([C@@H](CCCN[*:3])N[*:1])[*:2]].[O=C([C@H](Cc1ccc2ccccc2c1)N[*:1])[*:2]].[dP].[dA]}$PEPTIDE1,PEPTIDE1,2:R3-5:R2$$$V2.0)
5.99

Hello, the source for this data is patent US5786447A, in case you need it.
